- TESTED_SYSTEM: T1, 2α PASB (HIF-2α PASB domain, 240-350) (UniProt Q99814 240-350, labelled with NT-647-NHS dye in MST; 15N (and 13C 15N) labelled in NMR)
- T1 construct: range 240-350; also called PAS B domain of HIF-2α; not shown: His6 tag of vector pET28, then Met
- T1 sequence (Q99814 240-350): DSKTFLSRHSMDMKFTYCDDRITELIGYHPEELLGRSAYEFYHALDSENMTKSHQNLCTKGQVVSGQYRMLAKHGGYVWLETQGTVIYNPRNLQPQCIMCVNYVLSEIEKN
- ASSAY_NAME: competition ELISA: 2α PASB on Ni plate, peptide titrated, blocked partner GST-1β; the value stands in the panel without a name, the ELISA fits give IC50
EXPERIMENTAL_READOUT: pIC50
One number for each entry, as −log10 of the molar value.

Q. State the recorded pIC50 for this entry: CAVIIF (also called alanine scan peptide of CRVIIF, position 2 (R to A))
A. 4.65
